Data origin: ChEMBL document CHEMBL4190249

tested on: A549; assay: Antiproliferative activity against human A549 cells at 0.1 to 10 uM after 96 hrs by WST8 assay; type: functional, cell-based
Active and inactive are the calls of the source. The calls are words filed in the database; no cut-off is given here.
Return exactly one item of t (active), f (inactive)

Inquiry: What was the test verdict on `CC1=NN(c2ccc(C(=O)NCCOCCOCC(=O)NCCOCCOCC(=O)Nc3cc(C(=O)Nc4cn(C)c(C(=O)Nc5cn(C)c(C(=O)Nc6cc(C(=O)NCCCC(=O)Nc7cc(C(=O)Nc8cc(C(=O)Nc9cc(C(=O)Nc%10cc(C(=O)NCCCN(C)C)n(C)c%10)n(C)c9)n(C)c8)n(C)c7)n(C)c6)n5)n4)n(C)c3)cc2)C(=O)/C1=C/c1ccc(-c2cc(C)c(C)cc2[N+](=O)[O-])o1` ?
Reply text: t

Inquiry: What was the test verdict on `CC1=NN(c2ccc(C(=O)NCCC(=O)NCCC(=O)Nc3cc(C(=O)Nc4cn(C)c(C(=O)Nc5cn(C)c(C(=O)Nc6cc(C(=O)NCCCC(=O)Nc7cc(C(=O)Nc8cc(C(=O)Nc9cc(C(=O)Nc%10cc(C(=O)NCCCN(C)C)n(C)c%10)n(C)c9)n(C)c8)n(C)c7)n(C)c6)n5)n4)n(C)c3)cc2)C(=O)/C1=C/c1ccc(-c2cc(C)c(C)cc2[N+](=O)[O-])o1` ?
Reply text: t

Inquiry: What was the test verdict on `CC1=NN(c2ccc(C(=O)O)cc2)C(=O)/C1=C/c1ccc(-c2cc(C)c(C)cc2[N+](=O)[O-])o1` ?
Reply text: f

* * *

test system: NCI-H460; experiment: Anticlonogenic activity against human NCI-H460 cells after 10 days; format: functional, cell-based; settings: NCI-H460, 240 h
EXPERIMENTAL_READOUT: pIC50
On this scale, pIC50 is minus log10 of a concentration expressed in M (mol/L).

# pIC50 (molecule: `CC1=NN(c2ccc(C(=O)O)cc2)C(=O)/C1=C/c1ccc(-c2cc(C)c(C)cc2[N+](=O)[O-])o1` ) is 5.20

* * *

tested on: dsDNA; assay: Binding affinity to 5'-ACTTATCCACTATAGA-3'/3'-TGAATAGGTGATATCT-5' dsDNA (unknown origin) assessed as change in melting temperature at 2.5 uM by spectrophotometric method; assay type: nucleic-acid assay
EXPERIMENTAL_READOUT: ΔTm (°C)
State the answer as a number, implicitly in °C.

# ΔTm (compound: `CC1=NN(c2ccc(C(=O)NCCC(=O)NCCC(=O)Nc3cc(C(=O)Nc4cn(C)c(C(=O)Nc5cn(C)c(C(=O)Nc6cc(C(=O)NCCCC(=O)Nc7cc(C(=O)Nc8cc(C(=O)Nc9cc(C(=O)Nc%10cc(C(=O)NCCCN(C)C)n(C)c%10)n(C)c9)n(C)c8)n(C)c7)n(C)c6)n5)n4)n(C)c3)cc2)C(=O)/C1=C/c1ccc(-c2cc(C)c(C)cc2[N+](=O)[O-])o1` ) is 11

* * *

test system: A549; assay: Anticlonogenic activity against human A549 cells after 10 days; type: functional, cell-based; conditions: A549, 240 h
EXPERIMENTAL_READOUT: IC50 (µM)
State the answer as a number, implicitly in µM.

# IC50 (compound: `CC1=NN(c2ccc(C(=O)O)cc2)C(=O)/C1=C/c1ccc(-c2cc(C)c(C)cc2[N+](=O)[O-])o1` ) is 10
